Each entry below carries its recorded TGI.
System: TK-10 renal
Assay: NCI tumour cell line growth inhibition, 48 h
Give just the numeric value; µM need not be written.

COC(=O)c1sc(=S)sc1SCc1cccc(CSc2sc(=S)sc2C(=O)OC)c1 : 96.9
O=S(=O)(Nc1ccccc1)c1ccc(C2CC3(Cl)C(Cl)=C(Cl)C2(Cl)C3(Cl)Cl)cc1 (centres undefined) : 14.6
O=C1CSC(c2cc3cc(Br)ccc3nc2Cl)N1c1ccc(Cl)cc1 (centres undefined) : 70.7
O=C(O)c1cn(C2CC2)c2cc(N3CCN(C(=O)N(c4ccccc4)c4nc(-c5ccccc5)cs4)CC3)c(F)cc2c1=O : 32.6
COc1cc2c(cc1OCCCOc1cc3c(cc1OC)C(=O)N1CCC[C@H]1C(=O)N3)N=C[C@@H]1CCCN1C2=O : 84.5
Nc1cc(C(F)(F)F)c(-c2nc(N3CCOCC3)nc(N3CCOCC3)n2)cn1 : 1.17
COc1cc(/C=C/c2cc(/C=C/c3ccc(O)c(OC)c3)n(C(=O)Nc3ccc(C)cc3)n2)ccc1O : 5.81

Here is the next item to consider.
Observed TGI on TK-10 renal for CC(C)CCCC(C)C1CCC2C3CC([N+](=O)[O-])=C4CC(O)CCC4(C)C3CCC12C (centres undefined) , please.
39.6

###

Test system: OVCAR-8 ovarian
Assay: NCI tumour cell line growth inhibition, 48 h
# TGI listing for each entry below

CCCCCCCCCCCCOC1C(C(COC2OC(C(O)CO)C3OC(C)(C)OC23)OC(=O)Nc2ccccc2)OC2OC(C)(C)OC21 (stereo unspecified) : 26.2 µM

GET /values?readout=TGI&item= C=CCN(CC=C)Cc1c[nH]c2ccccc12
69 µM

// query: COc1cc(CCN)c(OC)c(OC)c1
> 100 µM

One more compound: Cc1ccc2c(c1C)CC1(Cc3ccc(C)c(C)c3C1=O)C2=O (stereo unspecified)
> 100 µM

Same lookup for Cc1[nH]c(=O)c2oc3cc4ccccc4cc3c2c1C(=O)O , please.
> 10 µM

Please answer likewise for CNS(=O)(=O)NNS(=O)(=O)c1ccc(C)cc1
> 100 µM

Moving on to O=C(c1c(F)c(F)c(F)c(F)c1F)n1c(=S)n(C(=O)c2c(F)c(F)c(F)c(F)c2F)c2ccccc21
> 100 µM

###

System: MOLT-4 leukemia
Experiment: NCI tumour cell line growth inhibition, 48 h
endpoint_name: TGI

Cc1nc2ccccc2n1Cc1nnc(-c2ccccc2)o1 : > 100 µM
CC1(C)CC2=NO[Se]3=C2C(=NO3)C1 : 9.41 µM
Cc1ccc(-c2nc([P+](c3ccccc3)(c3ccccc3)c3ccccc3)c(N3CCOCC3)o2)cc1 : 3.27 µM

Please report the recorded TGI for COC(=O)C1CC2CC1C1C2SC(F)(F)C1(F)F (configuration not stated) .
> 100 µM

Same question, O=C(O)CSc1cc(NS(=O)(=O)c2ccc(Br)cc2)c2ccccc2c1O this time
> 23.3 µM

Next compound: C[C@H]1CCC/C=C/[C@@H]2C[C@H](OC(=O)CN(C)C)C[C@H]2[C@H](O)/C=C/C(=O)O1
2.79 µM

What about COc1ccc(OC/C(N)=N/NC(=O)c2ccncc2)cc1 ?
> 100 µM

Then CCCCC(C(=O)C(=O)Nc1ccccc1CC)C(=O)C(C)C (configuration not stated) ?
> 100 µM

Subsequent entry: COC(=O)N/N=C(\C)c1sc(-c2nc(C)c(/C(C)=N/NC(=O)OC)s2)nc1C
> 100 µM

For COc1cc(NC(=O)COc2ccccc2)c(C(N)=O)cc1OC then?
> 100 µM

Another: CC(=O)NC(CCCNC(=O)OCc1ccccc1)C(=O)NCc1ccccc1 (configuration not stated)
> 100 µM

Further, for CN(C)c1ccc(/C=c2/sc3nc(=O)c(-c4ccccc4NC(=O)C(F)(F)F)nn3c2=O)cc1 ?
> 100 µM

Quick one: CC(C)CCCC(C)C1CCC2C3CC([N+](=O)[O-])=C4CC(O)CCC4(C)C3CCC12C (configuration not stated)
88.2 µM

Field entry: COc1ccc([C@@H]2[C@@H](Oc3ccccc3)C(=O)N2c2cc(OC)c(OC)c(OC)c2)cc1F
> 100 µM

What do you have for CN1CCN(C(=O)/C=C/c2ccc([N+](=O)[O-])o2)CC1 ?
93.4 µM

Try this compound too: COc1ccc(NC(=S)c2ccc([N+](=O)[O-])o2)cc1
13.9 µM

Now consider CCOC(=O)C1C(NC(N)=O)N(Cc2ccccc2)C(=O)N1Cc1ccccc1 (configuration not stated) .
> 100 µM

Please answer likewise for CCOc1ccc(OP2(=O)NC(=O)C=C(C)N2)cc1 (configuration not stated)
> 100 µM

How about this compound: CS(=O)(=O)CCC1CCC(=O)O1 (configuration not stated)
> 100 µM

Another: COC(=O)C1CC(=O)O[C@H]1c1ccc(OC)c(OC)c1 (some centres not stated)
> 100 µM

Request: CC(C)c1ccc2c(c1)CCC1C2CCCC1(C)NCc1ccccc1 (configuration not stated)
12.1 µM

Then COc1cc(/C=C/c2cc(/C=C/c3ccc(O)c(OC)c3)n(C(=O)Nc3ccc(C)cc3)n2)ccc1O ?
1.06 µM

###

The compounds listed here are annotated with their GI50.
System: MOLT-4 leukemia
Experiment: NCI tumour cell line growth inhibition, 48 h

Previously resolved entries follow.
Oc1c(Br)cc(Cl)cc1C(c1cc(Cl)cc(Br)c1O)C(Cl)(Cl)Cl : 3.32 µM
COc1ccc(Cn2c(Br)c3c(c2-c2cc(OC)c(OC)c(OC)c2)CCc2sc(N)nc2-3)cc1 : 1.51 µM

Please give the measured GI50 for this compound: COc1ccc(-n2c(=O)c3ccccc3n(Cc3ccc(C(=O)NO)cc3)c2=O)cc1
3.21 µM

What do you have for O=C1NC(=NCc2cccs2)O/C1=C\c1ccc2ncccc2c1 ?
4.88 µM

And for CCOC(=O)C#Cc1c(C(=O)OCC)nnn1[C@@H]1O[C@H](COC)[C@@H](OC)[C@H]1OC ?
1.92 µM

Same thing, different compound: O=C1NC(=O)C2C3C=CC(C12)C1C2C(=O)NC(=O)C2C31 (centres undefined)
160 µM

Consider next the compound C#CCCCCCC(=O)N[C@H]1C=C[C@@H]2/C=C(C)/C=C/[C@@H](C)[C@H]([C@H](C)[C@H](O)[C@@H](C)NC(C)=O)OC(=O)/C=C/C=C(C)\C=C\[C@]2(C)C1 in the same way.
6.79 µM

Also, CN(c1ccccc1)c1c2ccccc2nc2[nH]c3ccccc3c12 please.
0.841 µM

And O=C1[C@H](Cc2ccc(O)cc2)N2C(=O)CCN(C(=O)NCc3ccccc3)[C@H]2CN1Cc1cccc2ccccc12 ?
1.67 µM

###

System: HOP-18 NSCLC
Assay: NCI tumour cell line growth inhibition, 48 h
endpoint_name: TGI

Cc1ccccc1NC(=O)CC(=O)NNCC(=O)Nc1nnc(-c2ccccc2)s1 : 96.2 µM

Fill in: TGI of O=C(CC1(O)C(=O)Nc2c(Cl)cc(Cl)cc21)c1cccc([N+](=O)[O-])c1 (stereo not given) is ___
98.6 µM

Entry to check: CCN(CC)c1ccc(Cl)c2c1C(O)(C(C)C)C2(C)C (stereo not given)
27.3 µM

###

Tested on: SK-OV-3 ovarian
Experiment: NCI tumour cell line growth inhibition, 48 h; in the data active = GI50 below about 0.43 µM; inactive = the rest
Parameter call: string, one of T = active, F = inactive

Recorded results for 5 compounds are shown here.
CN(c1ccccc1)c1c2ccccc2nc2[nH]c3ccccc3c12 : F
COc1cc(NC(=O)COc2ccccc2)c(C(N)=O)cc1OC : F
CN(C)c1ccc(/C=N/N=C(\C#N)[S][Sn]([Cl])([c]2ccccc2)[c]2ccccc2)cc1 : F
Nc1cc(C(F)(F)F)c(-c2nc(N3CCOCC3)nc(N3CCOCC3)n2)cn1 : T
CN(C)CCCC1(c2ccc(F)cc2)OCc2cc(-c3csc4ccccc34)ccc21 (centres undefined) : F

Per the assay record, what outcome was assigned to O=C1c2ccccc2-c2c1c1c(O)cccc1n2Cc1ccccc1 ?
F

Next compound up: CC(=O)O[C@H]([C@H](OC(C)=O)[C@H](C)OC(C)=O)[C@@H](/C=C/[C@H]1CC=CC(=O)O1)OC(C)=O
F

Now give it for COc1cc2c(Oc3ccc(-c4cnc(Nc5ccc(F)cc5)n(C)c4=O)cc3F)ccnc2cc1OCCCN1CCOCC1 too.
F

Now the same for CCOC(=O)c1c(Cl)c2c(n1Cc1ccccc1)-c1oncc1CCC2
F

Here is the next compound: CCOC(=O)C#Cc1c(C(=O)OCC)nnn1[C@@H]1O[C@H](COC)[C@@H](OC)[C@H]1OC
F

Queued: Cc1ccc(-c2nc([P+](c3ccccc3)(c3ccccc3)c3ccccc3)c(N3CCOCC3)o2)cc1
T

Please answer likewise for COc1cc(/C=C/c2cc(/C=C/c3ccc(O)c(OC)c3)n(C(=O)Nc3ccc(C)cc3)n2)ccc1O
F

Likewise for c1cc(OCCCCCOc2cccc(-c3nc4ccccc4[nH]3)c2)cc(-c2nc3ccccc3[nH]2)c1 ?
F

Now consider CC[C@]12C=CCN3CC[C@@]4(c5ccc(OC)cc5N(C)[C@H]4[C@@](O)(C(=O)OC)[C@@H]1OC(=O)CCCN1CCN(CCCC(=O)O[C@@H]4[C@]5(CC)C=CCN6CC[C@@]7(c8ccc(OC)cc8N(C)[C@H]7[C@@]4(O)C(=O)OC)[C@@H]65)CC1)[C@@H]32 and answer again.
F
